Assay: Concentration of dissolved indolocarbazole obtained in aqueous solutions (HPLC)
Details: peg 300/ba/pvp/h2o, organic solvent or mixture, Concentration Obtained, Example 12: 47.5% PEG 300, 2.5% BA, 2.5% PVP, 47.5% H2O; target 10 mg/ml
metric: solubility thermodynamic

[ask] Quick one: solubility thermodynamic for COC(=O)C1(O)CC2OC1(C)n1c3ccccc3c3c4c(c5c6ccccc6n2c5c31)C(=O)NC4 (stereo not shown) [Compound K-252a] ?
[reply] 9600 µg/mL

---

Assay: physchem
Conditions: peg 400/ba/pvp/h2o, organic solvent or mixture, Concentration Obtained
Please go through the items and note down their solubility thermodynamic.
Give the number; µg/mL is assumed, so skip it.

[ask] Give its solubility thermodynamic value. Item: COC1(CO)CC2OC1(C)n1c3ccccc3c3c4c(c5c6ccccc6n2c5c31)C(=O)NC4 (centres unmarked)
[reply] 10000

[ask] Reported solubility thermodynamic for CC[S+]([O-])Cc1ccc2c(c1)c1c3c(c4c5ccccc5n5c4c1n2C1CC(O)(C(=O)OC)C5(C)O1)CNC3=O (centres unmarked) : what is it?
[reply] 4000
